- Species on record: Homo sapiens
- method-summary: Selectivity for human adenosine A3 receptor over human adenosine A2A receptor
For each record, write down the corresponding Ratio Ki.
One number for each entry.

{"substance-smiles": "CNC(=S)OC[C@H]1O[C@@H](n2cnc3c(NC4CCCC4)nc(Cl)nc32)[C@](C)(O)[C@@H]1O", "Ratio Ki": 3.1}

QUERY: Could you share which Ratio Ki value was measured for "OC[C@H]1O[C@@H](n2cnc3c(N[C@@H]4CCOC4)nc(Cl)nc32)[C@H](O)[C@@H]1O" ?
RESULT: 21.7

###

Kindly state Ki for each of the entries shown.
- measurement-target: A1 adenosine receptor (Sus scrofa)
- Sequence (Q4VQ11 whole entry): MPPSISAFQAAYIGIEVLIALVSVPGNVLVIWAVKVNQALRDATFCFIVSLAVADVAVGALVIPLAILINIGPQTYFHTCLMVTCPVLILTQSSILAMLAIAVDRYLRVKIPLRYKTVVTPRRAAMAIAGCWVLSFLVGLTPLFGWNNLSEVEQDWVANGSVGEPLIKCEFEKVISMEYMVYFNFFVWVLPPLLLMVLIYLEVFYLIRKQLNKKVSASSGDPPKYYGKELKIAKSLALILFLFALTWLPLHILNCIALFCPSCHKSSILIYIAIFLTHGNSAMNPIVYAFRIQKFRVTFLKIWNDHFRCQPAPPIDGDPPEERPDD
One number for each entry, in nM.

{"substance-smiles": "C[C@@]1(O)[C@H](O)[C@@H](COC(=S)NCc2ccccc2)O[C@H]1n1cnc2c(NC3CCCC3)nc(Cl)nc21", "quantity-unit": "nM", "Ki": 380}
{"substance-smiles": "CCCNC(=S)OC[C@H]1O[C@@H](n2cnc3c(N[C@@H]4CCOC4)ncnc32)[C@](C)(O)[C@@H]1O", "quantity-unit": "nM", "Ki": 3200}
{"substance-smiles": "C[C@@]1(O)[C@H](O)[C@@H](CO)O[C@H]1n1cnc2c(NC3CCCC3)nc(Cl)nc21", "quantity-unit": "nM", "Ki": 3.6}
{"substance-smiles": "CCCNC(=O)OC[C@H]1O[C@@H](n2cnc3c(NC4CCCC4)nc(Cl)nc32)[C@](C)(O)[C@@H]1O", "quantity-unit": "nM", "Ki": 513}
{"substance-smiles": "C[C@@]1(O)[C@H](O)[C@@H](CO)O[C@H]1n1cnc2c(NC3CCCC3)ncnc21", "quantity-unit": "nM", "Ki": 10}

Quick request: Ki for each listed item, please.
1. C[C@@]1(O)[C@H](O)[C@@H](COC(=S)NC2CCCC2)O[C@H]1n1cnc2c(N[C@@H]3CCOC3)nc(Cl)nc21
2. CNC(=S)OC[C@H]1O[C@@H](n2cnc3c(N[C@@H]4CCOC4)nc(Cl)nc32)[C@](C)(O)[C@@H]1O
3. C[C@@]1(O)[C@H](O)[C@@H](COC(=S)NC2CCCC2)O[C@H]1n1cnc2c(NC3CCCC3)nc(Cl)nc21

RESULT:
1: 2050; 2: 276; 3: 380
